Measured values drawn from patent US11814447B2 for this set.

target.or.test.system: T1, Human EphA2 (Ecto) (Human, UniProt P29317 24-537)
T1 construct: extracellular domain
T1 sequence (P29317 24-537): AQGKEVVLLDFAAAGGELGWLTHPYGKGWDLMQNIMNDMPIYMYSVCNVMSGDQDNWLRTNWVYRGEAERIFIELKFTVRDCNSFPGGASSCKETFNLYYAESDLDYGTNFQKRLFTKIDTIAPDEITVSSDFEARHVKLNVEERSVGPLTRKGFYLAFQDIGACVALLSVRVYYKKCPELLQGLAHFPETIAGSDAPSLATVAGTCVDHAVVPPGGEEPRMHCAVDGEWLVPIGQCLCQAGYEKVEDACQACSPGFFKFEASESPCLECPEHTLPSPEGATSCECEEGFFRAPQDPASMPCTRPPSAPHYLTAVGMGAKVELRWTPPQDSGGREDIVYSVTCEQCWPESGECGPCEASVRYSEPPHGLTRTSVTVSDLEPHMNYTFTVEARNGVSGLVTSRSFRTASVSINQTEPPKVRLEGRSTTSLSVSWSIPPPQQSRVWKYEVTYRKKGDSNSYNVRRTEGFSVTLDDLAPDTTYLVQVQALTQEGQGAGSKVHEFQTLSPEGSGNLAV
protocol.details: FP competition, tracer Compound 18
Starred links: 1 amine or outer side, 2 acyl side, 3 side chain; linkers in the order of their positions; H or OH if unused. Positions of bridges follow the written chain, without caps; N, C: chain ends. Non-standard residues stand in square brackets, D forms with d. Primed or numbered codes have the meaning given here. No end group written: not given here. TBMB′ = 1,3,5-tris(bromomethyl)benzene, 1,3,5-tris(methylene)benzene core, three thioethers to Cys; 1Nal = N[C@@H](Cc1cccc2ccccc12)C(=O)O; TBMB = c1c(C[*:1])cc(C[*:3])cc1C[*:2]; hArg = N=C(N)NCCCC[C@H](N)C(=O)O; Tle = CC(C)(C)[C@H](N)C(=O)O; Aib = CC(C)(N)C(=O)O; Sar = CNCC(=O)O
Below: a set of entries, each annotated with reported Ki.
Please respond with the number in nM and leave the unit unwritten.

Ac-[Sar][Sar]AADVPCPWGPFWCPVNRPGC (linker 8-15-22 via TBMB) [Bicycle Compound 195] = 1.01

Value of Ki reported for the binder [Sar][Sar]AHD[Tle]PCPWGPFWCPVNRPGC (linker 8-15-22 via TBMB) [Bicycle Compound 217] is 0.49

The reported Ki of the binder Ac-[Sar][Sar]AH[dD]VPCPWGPFWCPVNRPGC (linker 8-15-22 via TBMB) [Bicycle Compound 210] was 1.1

The binder listed as AHDVPCP[1Nal]GPFWCPVNRPGC (linker 6-13-20 via TBMB) [Bicycle Compound 188] shows Ki equal to 1.45

Ac-[Sar][Sar]A[dD]VTCP[1Nal]GPFWCPVNRPGC (linker 7-14-21 via TBMB′) [Bicycle Compound 170] yielded Ki of 0.6

// field: Ki; key: Ac-[Sar][Sar]H[dD]VPCPWG[Aib]F[1Nal]CPVNR[Aib]GC (linker 7-14-21 via TBMB) [Bicycle Compound 268] ; value = 1.24

# binder [Sar][Sar]AH[dA]VPCPWGPFWCPVNRPGC (linker 8-15-22 via TBMB) [Bicycle Compound 206] ; its Ki = 8.3

Value of measured Ki for the entry Ac-[Sar][Sar]AH[dD]V[Aib]CPWGPFWCPVNRPGC (linker 8-15-22 via TBMB) [Bicycle Compound 213] : 1.9

Input Ac-[Sar][Sar]A[dH]DVPCP[1Nal]GPFWCP[Tle]N[hArg]PGC (linker 8-15-22 via TBMB) [Bicycle Compound 230] . Output Ki: 1.8

Reported Ki for Ac-[Sar][Sar]A[dH]DVPCPWGPAWCPVNRPGC (linker 8-15-22 via TBMB; also: A13 (ΨAla): reduced amide backbone bond) [Bicycle Compound 228] was 210
